What Intracellular accumulation was measured for each of the following?
- Tested on: Caco-2 monolayer
- protocol-description: Caco-2 permeability assay
- measurement-parameters: B→A, 10 µM
One number for each entry, in %.

>>> numeric_result("CCCCCCC[C@H](O)CC(=O)CCc1ccc(O)c(OC)c1")
12
>>> numeric_result("CCCCC/C=C/C(=O)CCc1ccc(O)c(OC)c1")
1
>>> numeric_result("CCCCC[C@H](O)CC(=O)CCc1ccc(O)c(OC)c1")
5

Problem: Which Intracellular accumulation is listed for CCCCCCCCC[C@H](O)CC(=O)CCc1ccc(O)c(OC)c1 [10G, 10-gingerol] ?
Solution: 10
